Where do the numbers come from? From ChEMBL document CHEMBL5154787.

# assay summary: Ratio of drug concentration in spinal cord to plasma in CCI induced thermal hyperalgesia in Sprague-Dawley rat at 3 mg/kg, po measured at 5.5 hrs post dose
# Type: ADME, organism-based
value kind: Kp at 5.5 h
One number for each entry.

Measured Kp at 5.5 h, CC(C)C[C@](C)(N)COc1cnc(-c2ccnc(C(F)F)c2)cc1C(F)F : 13

---

Let's go through some pKi measurements on AP2-associated protein kinase 1 (Mus musculus) together.
Sequence (Q3UHJ0 whole entry): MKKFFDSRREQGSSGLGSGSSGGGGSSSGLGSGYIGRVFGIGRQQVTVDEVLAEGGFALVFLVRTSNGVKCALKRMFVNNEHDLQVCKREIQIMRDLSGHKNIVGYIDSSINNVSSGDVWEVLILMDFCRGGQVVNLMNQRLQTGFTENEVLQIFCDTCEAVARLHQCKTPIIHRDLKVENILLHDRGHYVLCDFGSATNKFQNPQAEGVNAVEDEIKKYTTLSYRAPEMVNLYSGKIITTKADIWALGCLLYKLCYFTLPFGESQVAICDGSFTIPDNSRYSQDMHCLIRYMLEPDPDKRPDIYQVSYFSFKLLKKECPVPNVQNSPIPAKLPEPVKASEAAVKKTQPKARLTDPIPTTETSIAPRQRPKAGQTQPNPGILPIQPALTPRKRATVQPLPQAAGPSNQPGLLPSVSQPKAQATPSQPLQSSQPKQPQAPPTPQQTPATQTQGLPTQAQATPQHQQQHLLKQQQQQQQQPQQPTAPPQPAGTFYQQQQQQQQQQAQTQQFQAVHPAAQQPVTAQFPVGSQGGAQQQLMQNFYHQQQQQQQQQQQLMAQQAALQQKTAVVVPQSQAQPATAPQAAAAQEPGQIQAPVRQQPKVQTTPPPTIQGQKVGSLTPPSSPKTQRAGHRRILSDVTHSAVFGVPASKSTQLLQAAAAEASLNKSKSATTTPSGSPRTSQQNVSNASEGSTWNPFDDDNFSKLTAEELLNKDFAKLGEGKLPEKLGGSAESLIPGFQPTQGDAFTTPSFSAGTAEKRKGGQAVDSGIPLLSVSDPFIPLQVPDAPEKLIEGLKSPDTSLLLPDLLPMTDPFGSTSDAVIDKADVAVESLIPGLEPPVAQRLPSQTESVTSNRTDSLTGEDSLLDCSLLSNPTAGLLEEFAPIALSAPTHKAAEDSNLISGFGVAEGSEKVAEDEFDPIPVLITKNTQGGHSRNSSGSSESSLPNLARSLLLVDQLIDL
One number for each entry, as −log10 of the molar value.

Parameter requested: pKi. Apply to each item below.
1. Cc1cc(-c2cc(C)c(OC[C@@](C)(N)CC(C)C)cn2)ccn1
2. COC(=O)Nc1cc(-c2cc(Cl)c(OC[C@@](C)(N)CC(C)C)cn2)ccn1
3. COC(=O)Nc1cc(-c2ccc(OC[C@@](C)(N)CC(C)C)c(C#N)c2)ccn1
4. CC(=O)Nc1cc(-c2cc(F)c(OC[C@@H](N)CC(C)C)c(Cl)c2)ccn1
5. COC(=O)Nc1cc(-c2cnc(OC[C@@](C)(N)CC(C)C)c(Cl)c2)ccn1

1: 8.33; 2: 9.96; 3: 10.15; 4: 8.60; 5: 9.96

For every item below, please supply its pKi.
1. COC(=O)Nc1cc(-c2ccc(OC[C@@](C)(N)CC(C)C)c(C)n2)ccn1
2. Cc1cc(-c2cc(Cl)c(OC[C@@](C)(N)CC(C)C)cn2)ccn1
3. CC(=O)Nc1cc(-c2ccc(OC[C@@H](N)CC(C)C)c(C#N)c2)ccn1
4. Cc1cc(-c2cc(C(F)F)c(OC[C@@](C)(N)CC(C)C)cn2)ccn1
5. COC(=O)Nc1cc(-c2cnc(OC[C@@](C)(N)CC(C)C)c(C#N)c2)ccn1
6. COC(=O)Nc1cc(-c2cnc(OC[C@@](C)(N)CC(C)C)c(C)c2)ccn1

9.54
9.15
10.40
9.74
9.82
9.68

# batch size: 4; output pKi per entry
1. CC(=O)Nc1cc(-c2ccc(OC[C@@](C)(N)CC(C)C)c(C#N)c2)ccn1
2. CC(=O)Nc1cc(-c2ccc(OC[C@@](C)(N)CC(C)C)c(C(F)(F)F)c2)ccn1
3. COC(=O)Nc1cc(-c2ccc(OC[C@@](C)(N)CC(C)C)c(Cl)n2)ccn1
4. CC(=O)Nc1cc(-c2ccc(OC[C@@H](N)CC(C)C)cc2)ccn1

10.05
10.40
9.77
9.05

Record COC(=O)Nc1cc(-c2cnc(OC[C@@](C)(N)CC(C)C)c(OC)c2)ccn1 (racemic) , field pKi: 8.60
